# SYSTEM_TESTED: FER (Mus musculus, UniProt P70451)
# Sequence (P70451 whole entry): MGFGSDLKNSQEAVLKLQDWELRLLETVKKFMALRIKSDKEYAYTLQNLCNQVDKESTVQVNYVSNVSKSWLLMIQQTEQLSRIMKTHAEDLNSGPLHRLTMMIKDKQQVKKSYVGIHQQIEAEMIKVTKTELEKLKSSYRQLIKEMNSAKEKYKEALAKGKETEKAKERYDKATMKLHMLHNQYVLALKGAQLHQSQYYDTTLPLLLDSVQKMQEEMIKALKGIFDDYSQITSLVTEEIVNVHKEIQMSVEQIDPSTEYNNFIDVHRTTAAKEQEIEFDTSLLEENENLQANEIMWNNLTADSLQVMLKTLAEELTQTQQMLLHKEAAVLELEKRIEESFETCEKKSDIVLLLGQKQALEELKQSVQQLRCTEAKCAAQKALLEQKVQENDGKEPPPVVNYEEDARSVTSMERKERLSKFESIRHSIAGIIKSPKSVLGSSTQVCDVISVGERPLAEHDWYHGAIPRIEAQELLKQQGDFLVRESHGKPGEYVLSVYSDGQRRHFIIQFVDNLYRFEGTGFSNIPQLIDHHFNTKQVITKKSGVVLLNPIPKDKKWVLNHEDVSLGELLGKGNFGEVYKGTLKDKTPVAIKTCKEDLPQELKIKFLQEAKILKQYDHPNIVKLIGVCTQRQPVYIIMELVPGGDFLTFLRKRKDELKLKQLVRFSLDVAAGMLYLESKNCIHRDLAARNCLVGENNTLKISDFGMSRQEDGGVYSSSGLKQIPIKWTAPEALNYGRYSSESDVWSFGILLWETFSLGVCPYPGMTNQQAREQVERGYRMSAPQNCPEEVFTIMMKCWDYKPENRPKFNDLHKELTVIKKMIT
# TEST_NAME: Kinobeads elution with test compound, mouse brain lysate, MS
# Format: binding
# ASSAY_CONTEXT: kinase released from kinobeads by specific elution
# Procedure: This example illustrates competitive elution of proteins bound to kinobeads with non-modified test compounds (see particularly the fourth aspect of the invention). The kinobeads (as described in example 1) were contacted with mouse brains lysate, bound proteins were eluted with various test compounds and the released proteins were analysed by mass spectrometry. The kinobeads were contacted with mouse brain lysate under conditions that allow the binding of the proteins in the lysate to the ligands. […]
Reported mass spectrometry score, FER is given for each of the following molecules.
The answer should be a number; do not append a unit.

CCCCCCCCCCCCOS(=O)(=O)[O-].[Na+] [SDS]    275
CNC1CC2OC(C)(C1OC)n1c3ccccc3c3c4c(c5c6ccccc6n2c5c31)C(=O)NC4 (stereo not drawn) [CZC9280]    818
NCCCn1cc(C2=C(c3c[nH]c4ccccc34)C(=O)NC2=O)c2ccccc21 [CZC1038, Bisindolylmaleimide III, reference compound]    237
NCc1ccc(Nc2ncc(F)c(Nc3ccccc3)n2)cc1 [CZC00008004]    100

For Cn1c(=O)c(-c2c(Cl)cccc2Cl)cc2cnc(Nc3ccc(CN)cc3)cc21 [CZC7324] , what is its reported mass spectrometry score, FER? 388

Also CC(C)[C@H](CO)Nc1nc(Nc2ccc(C(=O)O)c(Cl)c2)c2ncn(C(C)C)c2n1 [Purvalanol B, reference compound] ? 322

---

# System: RSK1 (Mus musculus)
# Construct: from tissue; host or cells: mouse brain
# Sequence (Q9WUT3 whole entry): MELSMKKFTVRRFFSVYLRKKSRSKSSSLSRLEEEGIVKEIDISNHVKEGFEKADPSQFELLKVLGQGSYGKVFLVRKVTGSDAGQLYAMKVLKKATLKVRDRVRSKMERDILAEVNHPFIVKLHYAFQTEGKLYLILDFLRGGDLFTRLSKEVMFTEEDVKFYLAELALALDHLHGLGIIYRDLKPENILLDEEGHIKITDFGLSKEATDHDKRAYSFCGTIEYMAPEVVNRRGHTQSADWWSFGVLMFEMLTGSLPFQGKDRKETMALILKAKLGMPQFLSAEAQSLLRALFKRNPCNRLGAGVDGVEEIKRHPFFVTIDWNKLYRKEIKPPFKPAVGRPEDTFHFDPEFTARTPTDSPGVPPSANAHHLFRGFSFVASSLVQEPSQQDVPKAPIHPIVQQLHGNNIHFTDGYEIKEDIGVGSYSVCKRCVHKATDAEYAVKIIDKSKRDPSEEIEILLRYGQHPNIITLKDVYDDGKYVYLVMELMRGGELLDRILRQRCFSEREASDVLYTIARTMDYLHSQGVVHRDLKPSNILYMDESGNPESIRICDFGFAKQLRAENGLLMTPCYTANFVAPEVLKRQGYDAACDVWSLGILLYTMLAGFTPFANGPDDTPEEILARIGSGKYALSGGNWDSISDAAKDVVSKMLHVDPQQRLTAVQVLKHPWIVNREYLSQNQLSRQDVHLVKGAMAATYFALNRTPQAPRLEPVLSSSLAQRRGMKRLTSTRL
# TEST_NAME: Kinobeads elution with test compound, mouse brain lysate, MS
# Format: binding
# ASSAY_CONTEXT: kinase released from kinobeads by specific elution
PARAMETER_MEASURED: mass spectrometry score, RSK1
The answer should be a number; do not append a unit.

Cn1c(=O)c(-c2c(Cl)cccc2Cl)cc2cnc(Nc3ccc(CN)cc3)cc21    626

For NCc1ccc(Nc2ncc(F)c(Nc3ccccc3)n2)cc1 , what is its reported mass spectrometry score, RSK1? 312

Also CNC1CC2OC(C)(C1OC)n1c3ccccc3c3c4c(c5c6ccccc6n2c5c31)C(=O)NC4 (stereo not drawn) ? 1634

Also CC(C)[C@H](CO)Nc1nc(Nc2ccc(C(=O)O)c(Cl)c2)c2ncn(C(C)C)c2n1 [Purvalanol B, reference compound] ? 1177

Also NCCCn1cc(C2=C(c3c[nH]c4ccccc34)C(=O)NC2=O)c2ccccc21 [CZC1038, Bisindolylmaleimide III, reference compound] ? 292

Also CCCCCCCCCCCCOS(=O)(=O)[O-].[Na+] ? 825

---

Reported mass spectrometry score, JNK1 is given for each of the following compounds.
# SYSTEM_TESTED: JNK1 (Mus musculus)
# Construct: from tissue; host or cells: mouse brain
# Sequence (Q91Y86 whole entry): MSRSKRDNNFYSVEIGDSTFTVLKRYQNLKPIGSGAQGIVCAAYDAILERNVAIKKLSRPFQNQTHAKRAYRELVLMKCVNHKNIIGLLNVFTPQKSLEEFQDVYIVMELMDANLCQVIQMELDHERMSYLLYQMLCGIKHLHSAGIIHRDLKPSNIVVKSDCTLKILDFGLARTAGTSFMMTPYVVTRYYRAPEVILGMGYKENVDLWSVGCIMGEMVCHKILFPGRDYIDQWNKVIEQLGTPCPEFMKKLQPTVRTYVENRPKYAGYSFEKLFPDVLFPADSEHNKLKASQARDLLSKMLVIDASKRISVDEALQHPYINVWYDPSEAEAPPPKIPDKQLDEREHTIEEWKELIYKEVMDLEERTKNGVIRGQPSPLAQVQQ
# TEST_NAME: Kinobeads elution with test compound, mouse brain lysate, MS
# Format: binding
# ASSAY_CONTEXT: kinase released from kinobeads by specific elution
The answer should be a number; do not append a unit.

CCCCCCCCCCCCOS(=O)(=O)[O-].[Na+] [SDS]    389
CNC1CC2OC(C)(C1OC)n1c3ccccc3c3c4c(c5c6ccccc6n2c5c31)C(=O)NC4 (stereo not drawn) [CZC9280]    457
CC(C)[C@H](CO)Nc1nc(Nc2ccc(C(=O)O)c(Cl)c2)c2ncn(C(C)C)c2n1 [Purvalanol B, reference compound]    311
Oc1ccc(-c2nc(-c3ccc(F)cc3)c(-c3ccncc3)[nH]2)cc1 [CZC7098]    540
NCc1ccc(Nc2ncc(F)c(Nc3ccccc3)n2)cc1 [CZC00008004]    590

Please find the next compound below.
For Cn1c(=O)c(-c2c(Cl)cccc2Cl)cc2cnc(Nc3ccc(CN)cc3)cc21 [CZC7324] , what is its reported mass spectrometry score, JNK1? 448
